# Tgt: T1, Cy5-labeled karyopherin β1 (KPNB1) (UniProt Q14974 1-876, Cy5 label (site not stated))
# T1 construct: Karyopherin β1 (KPNB1, importin β1); also called importin β1; Cy5-KPNB1
# Experiment: single-molecule pull-down (TIRF microscopy); GST-NUPR1 immobilised; observed rate constants at various concentrations of karyopherin β1, fitted with a Michaelis-Menten equation
# Assay Setup: both partners purified
Reported Endpoint: pKd
pKd (log units): -log10 of the concentration in mol/L.

Prompt: Need pKd of GST-NUPR1 (nuclear protein-1) recombinant protein (natural protein, UniProt O60356 1-82, looked up, Nuclear protein-1 (NUPR1, p8/Com-1); Held on the PEG-coated quartz surface through neutravidin and a biotin-conjugated GST-tag antibody; No catalogue number is printed; also called p8; Com-1; source: bought: NOVUS Biologicals (recombinant protein)) MATFPPATSAPQQPPGPEDEDSSLDESDLYSLAHSYLGGGGRKGRTKREAAANTNRPSPGGHERKLVTKLQNSERKKRGARR , thanks.
Response: 9.12
